# measured_on: Cbl-b (Homo sapiens (Human))
# Sequence (Q13191 36-427): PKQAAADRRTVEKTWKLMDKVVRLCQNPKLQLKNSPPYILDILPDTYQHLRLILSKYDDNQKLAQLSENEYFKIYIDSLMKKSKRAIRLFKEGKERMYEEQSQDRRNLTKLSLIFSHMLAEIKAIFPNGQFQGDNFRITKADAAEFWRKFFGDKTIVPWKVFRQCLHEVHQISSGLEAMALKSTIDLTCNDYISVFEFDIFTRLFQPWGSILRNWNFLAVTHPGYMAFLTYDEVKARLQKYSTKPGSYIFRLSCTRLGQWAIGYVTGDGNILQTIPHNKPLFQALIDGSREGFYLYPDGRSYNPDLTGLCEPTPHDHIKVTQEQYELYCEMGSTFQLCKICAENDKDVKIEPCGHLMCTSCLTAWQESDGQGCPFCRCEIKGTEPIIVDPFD
# test_description: Cbl-b displacement assay (Cbl-b inhibition assay), Biological Example 8
# Format: binding
# experimental_setup: 0.5 nM Cbl-b final concentration (High); Table 8-1; read-out: Cbl-b IC50 (High)
pIC50: −log10 of the molar value.
observable: pIC50

Sample answers from the record:
C[C@H]1CCCN(Cc2cc3c(c(C(F)(F)F)c2)CN(c2cccc(C4(Cc5nncn5C)COC4)c2)C3=O)C1 : > 9.00
C[C@@H]1CN(Cc2cc(C(=O)Nc3cccc(C4(Cc5nncn5C)COC4)c3)nc(C3CC3)c2)CCC1(F)F : > 9.00
C[C@@H]1C[C@H](C)CN(Cc2cc3c(c(C(F)(F)F)c2)CN(c2cccc(C4(Cc5nncn5C)COC4)c2)C3=O)C1 : > 9.00

# ---- query molecule ----
The molecule listed as CCOc1cc(C2(Cc3nncn3C)COC2)cc(N2Cc3c(cc(CN4CCC(F)(F)[C@H](C)C4)cc3C(F)(F)F)C2=O)n1 shows pIC50 equal to 8.30 to 9.00
